Parameter: % Relative Potency. Scope: all listed entries.
- assaySystem: Carcinoembryonic Antigen (CEA) (Homo sapiens (Human), UniProt P06731)
- procedureDetails: competition RIA against 125I-labelled murine or chimeric A5B7 IgG1 on CEA coated beads
Write the number in % without appending the unit.

# binder, numericResult
data = [
    ("chimeric A5B7 IgG1 (antibody, V domains shown) VH: EVKLVESGGGLVQPGGSLRLSCATSGFTFTDYYMNWVRQPPGKALEWLGFIGNKANGYTTEYSASVKGRFTISRDKSQSILYLQMNTLRAEDSATYYCTRDRGLRFYFDYWGQGTTLTVSS VL: QTVLSQSPAILSASPGEKVTMTCRASSSVTYIHWYQQKPGSSPKSWIYATSNLASGVPARFSGSGSGTSYSLTISRVEAEDAATYYCQHWSSKPPTFGGGTKLEIKR", 100),
    ("murine A5B7 Fab' (Fab, V domains shown, rendered monovalent by alkylation) VH: EVKLVESGGGLVQPGGSLRLSCATSGFTFTDYYMNWVRQPPGKALEWLGFIGNKANGYTTEYSASVKGRFTISRDKSQSILYLQMNTLRAEDSATYYCTRDRGLRFYFDYWGQGTTLTVSS VL: QTVLSQSPAILSASPGEKVTMTCRASSSVTYIHWYQQKPGSSPKSWIYATSNLASGVPARFSGSGSGTSYSLTISRVEAEDAATYYCQHWSSKPPTFGGGTKLEIKR", 8),
    ("murine A5B7 F(ab')2 (other) VH: EVKLVESGGGLVQPGGSLRLSCATSGFTFTDYYMNWVRQPPGKALEWLGFIGNKANGYTTEYSASVKGRFTISRDKSQSILYLQMNTLRAEDSATYYCTRDRGLRFYFDYWGQGTTLTVSS VL: QTVLSQSPAILSASPGEKVTMTCRASSSVTYIHWYQQKPGSSPKSWIYATSNLASGVPARFSGSGSGTSYSLTISRVEAEDAATYYCQHWSSKPPTFGGGTKLEIKR", 97),
    ("mouse monoclonal antibody A5B7 (murine A5B7 IgG1) (antibody, V domains shown) VH: EVKLVESGGGLVQPGGSLRLSCATSGFTFTDYYMNWVRQPPGKALEWLGFIGNKANGYTTEYSASVKGRFTISRDKSQSILYLQMNTLRAEDSATYYCTRDRGLRFYFDYWGQGTTLTVSS VL: QTVLSQSPAILSASPGEKVTMTCRASSSVTYIHWYQQKPGSSPKSWIYATSNLASGVPARFSGSGSGTSYSLTISRVEAEDAATYYCQHWSSKPPTFGGGTKLEIKR", 93),
]

Turning to the following binder.
Value lookup for % Relative Potency; key = chimeric A5B7 IgG4 Fab' delta cys (Fab, V domains shown) VH: EVKLVESGGGLVQPGGSLRLSCATSGFTFTDYYMNWVRQPPGKALEWLGFIGNKANGYTTEYSASVKGRFTISRDKSQSILYLQMNTLRAEDSATYYCTRDRGLRFYFDYWGQGTTLTVSS VL: QTVLSQSPAILSASPGEKVTMTCRASSSVTYIHWYQQKPGSSPKSWIYATSNLASGVPARFSGSGSGTSYSLTISRVEAEDAATYYCQHWSSKPPTFGGGTKLEIKR
20
